# System: SHI-1
# PROCEDURE DETAILS: cell viability (% survival relative to DMSO control, bortezomib = 0%); higher = less cytotoxic
# CONDITION DETAILS: 10 nM; 72 h
Counter-ions that a name gives are not always drawn.
MEASURED ATTRIBUTE: cell viability (%)
Reply with just the number (in %).

Answered cases to consult:
| COMPOUND | TESTED ON | UNIT LABEL | cell viability |
| --- | --- | --- | --- |
| CN(C)C(=N)NC(=N)N | SHI-1 | % | 98.3 |
| Clc1cc(Cl)c(OCC#CI)cc1Cl | SHI-1 | % | 112 |
| CC(C)(Cc1ccccc1)NCC(O)c1ccc(O)c(NS(C)(=O)=O)c1 (configuration not stated) [Zinterol hydrochloride] | SHI-1 | % | 112 |
| CN(C)C(=O)n1nnnc1Cc1ccc(-c2ccccc2)cc1 | SHI-1 | % | 116 |
| c1ccc2nc(-c3nnc4sc(-c5cnccn5)nn34)ccc2c1 | SHI-1 | % | 107 |
| CC1Cc2ccccc2N1NC(=O)c1ccc(Cl)c(S(N)(=O)=O)c1 (configuration not stated) [Indapamide] | SHI-1 | % | 93.8 |

Please turn your attention to the following entry.
Lookup: Request body: readout cell viability, system SHI-1, query CCCCCCCNC=O [N-Heptyl-Formamide] . Return the value.
Found: 104

---

cell viability values for the compounds below.
# Test system: KCL-22
# PROCEDURE DETAILS: cell viability (% survival relative to DMSO control, bortezomib = 0%); higher = less cytotoxic
# CONDITION DETAILS: 10 nM; 72 h
Reply with just the number (in %).

| COMPOUND | TESTED ON | cell viability (%) |
| --- | --- | --- |
| N[C@@H](CCC(=O)N[C@@H](CS)C(=O)NCC(=O)O)C(=O)O [Glutathione] | KCL-22 | 110 |
| O=C1N[C@@H]2[C@@H](O)[C@@H](O)[C@H](O)[C@@H](CO)N2C1=O [Kifunensine] | KCL-22 | 104 |
| C#CCN[C@@H]1CCc2ccccc21 [Rasagiline] | KCL-22 | 108 |
| CCCCCCCCCCCCCCOc1ccc(C(=O)O)o1 [TOFA] | KCL-22 | 90.6 |
| CN(C)CCNC(=O)c1cccn2c(=O)c3cc4ccccc4cc3nc12 [Bmh-21] | KCL-22 | 113 |

Lookup: Request body: readout cell viability, system KCL-22, query CC(C)(F)C[C@H](N[C@@H](c1ccc(-c2ccc(S(C)(=O)=O)cc2)cc1)C(F)(F)F)C(=O)NC1(C#N)CC1 [Odanacatib] . Return the value.
Found: 96.9

Lookup: Also, CC(C)(O)CNc1nc(Nc2ccnc(C(F)(F)F)c2)nc(-c2cccc(C(F)(F)F)n2)n1 [Enasidenib] please.
Found: 102

Lookup: Also, O=C(Oc1ccc([N+](=O)[O-])cc1)N1CCC(C(O)(c2ccc3c(c2)OCO3)c2ccc3c(c2)OCO3)CC1 [JZL184] please.
Found: 108

---

# Tested on: HL-60
# PROCEDURE DETAILS: cell viability (% survival relative to DMSO control); higher = less cytotoxic
# CONDITION DETAILS: 1 µM; 72 h; co-treatment: pictilisib 100 nM
cell viability values for the compounds below.
Reply with just the number (in %).

Answered cases to consult:
| COMPOUND | cell viability / % |
| --- | --- |
| CCCCCCCCCCCCC/C=C/[C@@H](O)[C@H](CO)N(C)C | 96.1 |
| CCC(CC#N)OC(=O)N[C@@H](C)c1cccc(NC(=O)Nc2ccc(-c3cnco3)c(OC)c2)c1 (stereo in doubt) | 48.9 |
| CC(C)(CS(=O)(=O)[O-])NC(=O)CC[N+](C)(C)CCO | 115 |

Lookup: What does the record list as cell viability for Oc1ncc(F)c(O)n1 ?
Found: 96.5

Lookup: Also, CC(C)(CCCCCCCCCCC(C)(C)CC(=O)O)CC(=O)O please.
Found: 90

Lookup: Also, Cn1cc(C[C@@H](N)C(=O)O)c2ccccc21 please.
Found: 123

Lookup: Also, CN(C)C(=N)NC(=N)N please.
Found: 96.7

Lookup: Also, CN1CC(=O)N2[C@H](c3ccc4c(c3)OCO4)c3[nH]c4ccccc4c3C[C@@H]2C1=O please.
Found: 93.4

---

cell viability values for the molecules below.
# Tested on: KG-1
# PROCEDURE DETAILS: cell viability (% survival relative to DMSO control, bortezomib = 0%); higher = less cytotoxic
# CONDITION DETAILS: 100 nM; 72 h
Reply with just the number (in %).

Answered cases to consult:
| MOLECULE | TESTED ON | UNIT LABEL | cell viability |
| --- | --- | --- | --- |
| CC(C)(CCCCCCCCCCC(C)(C)CC(=O)O)CC(=O)O | KG-1 | % | 98.6 |
| OC[C@H]1N[C@@H](c2c[nH]c3c(O)ncnc23)[C@H](O)[C@@H]1O | KG-1 | % | 95.4 |
| COc1cc(C2Oc3cc(C4Oc5cc(O)cc(O)c5C(=O)C4O)ccc3OC2CO)ccc1O (stereo unspecified) | KG-1 | % | 99.2 |
| CC(=O)N1CCN(c2ccc(OC[C@@H]3CO[C@@](Cn4ccnc4)(c4ccc(Cl)cc4Cl)O3)cc2)CC1 (racemic) | KG-1 | % | 90.9 |

Lookup: Request body: readout cell viability, system KG-1, query NCc1ccc(-c2cccnc2)s1 . Return the value.
Found: 99.8

Lookup: Also, O=C(/C=C/c1cccnc1)NCCCCC1CCN(C(=O)c2ccccc2)CC1 please.
Found: 10.8

---

# Test system: HL-60
# PROCEDURE DETAILS: cell viability (% survival relative to DMSO control); higher = less cytotoxic
# CONDITION DETAILS: 1 µM; 72 h; co-treatment: AZD3965 100 nM
MEASURED ATTRIBUTE: cell viability (%)
Reply with just the number (in %).

| MOLECULE | TESTED ON | UNIT LABEL | cell viability |
| --- | --- | --- | --- |
| Cc1nnc(-c2ccc(N3CCC(Oc4ccccc4C(F)(F)F)CC3)nn2)s1 [MF-438] | HL-60 | % | 101 |
| O=NN(CCCl)C(=O)NCCCl [Carmustine] | HL-60 | % | 98.8 |
| NC(CCC(=O)NC(CSCc1ccc(Br)cc1)C(=O)NCC(=O)OC1CCCC1)C(=O)OC1CCCC1 (stereo not given) [S-para-Bromobenzylglutathione cyclopentyl diester] | HL-60 | % | 91.1 |
| CC1Cc2ccccc2N1NC(=O)c1ccc(Cl)c(S(N)(=O)=O)c1 (stereo not given) [Indapamide] | HL-60 | % | 103 |

Please turn your attention to the following entry.
Lookup: What does the record list as cell viability for NCc1ccc(S(N)(=O)=O)cc1 [4-Homosulfanilamide] ?
Found: 95.9

---

# Tested on: K-562
# PROCEDURE DETAILS: cell viability (% survival relative to DMSO control, bortezomib = 0%); higher = less cytotoxic
# CONDITION DETAILS: 100 nM; 72 h
cell viability values for the molecules below.
Reply with just the number (in %).

Answered cases to consult:
| MOLECULE | MEASURED ATTRIBUTE | OBSERVED RESULT |
| --- | --- | --- |
| COc1ccc2c(c1)c(CC(=O)O)c(C)n2C(=O)c1ccc(Cl)cc1 | cell viability | 96 |
| NCc1ccc(-c2cccnc2)s1 | cell viability | 96.1 |

Lookup: What does the record list as cell viability for Cl.OC[C@H]1NC[C@H](O)[C@@H](O)[C@H]1O ?
Found: 107

Lookup: Also, COc1cc(/C=C/c2ccc(OC)cc2OC)cc(OC)c1 please.
Found: 106

Lookup: Also, O=[As]O[As]=O (stereo not given) [Arsenic trioxide] please.
Found: 105

---

cell viability values for the molecules below.
# System: KCL-22
# PROCEDURE DETAILS: cell viability (% survival relative to DMSO control, bortezomib = 0%); higher = less cytotoxic
# CONDITION DETAILS: 10 nM; 72 h
Reply with just the number (in %).

Answered cases to consult:
| MOLECULE | TESTED ON | cell viability, % |
| --- | --- | --- |
| Cn1c2cc(S(C)=O)sc2c2cnn(Cc3cccc(N)c3)c(=O)c21 (stereo not drawn) | KCL-22 | 96.8 |
| NCc1ccc(-c2cccnc2)s1 | KCL-22 | 114 |

Please turn your attention to the following entry.
Lookup: What does the record list as cell viability for OC[C@H]1N[C@@H](c2c[nH]c3c(O)ncnc23)[C@H](O)[C@@H]1O ?
Found: 91.8
